Tested on: A549 NSCLC
Assay protocol: NCI tumour cell line growth inhibition, 48 h
Below is a list of entries, each paired with its recorded TGI value.
Please respond with the number in µM and leave the unit unwritten.

{"Structure smiles": "CCCCCCCCCCCC1=NC(C)(C)CN1CCO", "TGI / µM": 21.9}

Could you share what TGI was measured for C=C1C(=O)O[C@H]2[C@H]1CC/C(C=Nc1ccc(C(F)(F)F)cc1N)=C\CC[C@@]1(C)O[C@@H]21 , tested on A549 NSCLC?
32.7

---

System: HCC-2998 colon
Assay protocol: NCI tumour cell line growth inhibition, 48 h
Metric name: TGI (µM)
Please respond with the number in µM and leave the unit unwritten.

{"Molecule": "O/N=C(\\C=N\\O)c1ccc2c(c1)Sc1ccccc1O2", "Metric name": "TGI", "Number": 41.9}

Field: next molecule
Which TGI value belongs to C=CCCC(O)c1ccc(C(O)CCCCCCCCCCCC)o1 (stereo not given) ?
37.2

---

Below is a list of entries, each paired with its recorded TGI value.
Test system: HCT-116 colon
Assay protocol: NCI tumour cell line growth inhibition, 48 h
Please respond with the number in µM and leave the unit unwritten.

Answered examples (3):
{"Compound": "COc1ccc2c(C)cc(N/N=C/c3sccc3C)nc2c1", "Measured on": "HCT-116 colon", "Metric name": "TGI", "Number": 16.1}
{"Compound": "CCOC(=O)C1=C(N)Oc2c(sc3c(C)cccc23)C1c1ccc(Cl)cc1 (stereo unspecified)", "Measured on": "HCT-116 colon", "Metric name": "TGI", "Number": 12.1}
{"Compound": "COc1ccc(-c2nc(N(C)C)c3ccccc3n2)cc1", "Measured on": "HCT-116 colon", "Metric name": "TGI", "Number": 17.4}

Which TGI value belongs to O=C1C=C(c2c(-c3ccccc3)[nH]c3ccccc23)C(=O)N1c1ccccc1 ?
19.6

Which TGI value belongs to COc1ccc2nc3cccc([N+](=O)[O-])c3c(NCCN(CCO)CCO)c2c1 ?
0.607

Which TGI value belongs to Cc1ccc(Cl)cc1Nc1nc(C(F)(F)F)ccc1C(=O)N/N=C/c1c(Cl)cccc1Cl ?
1.58

---

Below is a list of entries, each paired with its recorded TGI value.
Tested on: HCC-2998 colon
Assay protocol: NCI tumour cell line growth inhibition, 48 h

Answered examples (3):
{"Molecule": "CCOC(=O)N1CC2(C(=O)OC)C=CC1C(C(=O)OC)C2 (centres undefined)", "Measured on": "HCC-2998 colon", "Result": "> 100 µM"}
{"Molecule": "Nc1nc(=O)n(C2CC(O)C(O)C(CO)O2)cc1F (centres undefined)", "Measured on": "HCC-2998 colon", "Result": "> 100 µM"}
{"Molecule": "CC1(C)CC[C@]2(C(=O)n3ccnc3)CC[C@]3(C)[C@H](C(=O)C=C4[C@@]5(C)C=C(C#N)C(=O)C(C)(C)[C@@H]5CC[C@]43C)[C@@H]2C1", "Measured on": "HCC-2998 colon", "Result": "< 0.01 µM"}

Which TGI value belongs to COc1ccccc1CNCCCN1C(=O)c2ccc3c4c(ccc(c24)C1=O)C(=O)N(CCCNCCCCNCCCCN)C3=O ?
6.39 µM

Which TGI value belongs to CCOCCc1c(O)nc(SC)[nH]c1=O ?
> 100 µM

Which TGI value belongs to O=C1C=C(c2c(-c3ccccc3)[nH]c3ccccc23)C(=O)N1c1ccccc1 ?
20.8 µM

Which TGI value belongs to CC1(C)N(OC2CCCCO2)C(c2ccccc2)C(c2ccccc2)=[N+]1[O-] (centres undefined) ?
> 100 µM

Which TGI value belongs to CC/C(Cl)=N\OC(=O)Nc1ccccc1OC(F)(F)F ?
37.8 µM

Which TGI value belongs to C(=N/Nc1ncnc2nc[nH]c12)/c1ccccn1 ?
> 36.8 µM

Which TGI value belongs to Cc1cc(=O)oc2c(CNC(C)C(=O)O)c(O)ccc12 (centres undefined) ?
> 100 µM

Which TGI value belongs to CCOC(=O)c1ccc2c(c1)[n+](=O)c(C(=O)c1ccc3ccccc3c1)c(C(F)(F)F)n2[O-] ?
3.03 µM

Which TGI value belongs to COc1ccc(/C=C2\N=C(c3ccccc3)N(c3cc(C(F)(F)F)ccc3Cl)C2=O)cc1OC ?
> 100 µM

Which TGI value belongs to CN(C)CCCNC(=O)c1cc(NC(=O)CCNC(=O)c2ccc3c(c2)C(=O)c2ccccc2C3=O)cn1C ?
> 100 µM

Which TGI value belongs to COC(=O)c1ccccc1/C=C1\Cc2cc3c(cc2C1=O)CCC3 ?
> 100 µM

Which TGI value belongs to Brc1ccccc1/C=C\C1(c2ccccc2)OCCO1 ?
32.2 µM

Which TGI value belongs to Cc1c2ccccc2c(CO)c2cc(F)c3ccccc3c12 ?
> 100 µM

Which TGI value belongs to CC(C)(C)c1ccc(-c2nc3ccccc3c(=O)o2)cc1 ?
85.5 µM

Which TGI value belongs to CC(=O)OCc1cccc(O)c1C(=O)CCC=C(C)C ?
> 100 µM

Which TGI value belongs to CC1=C2C(=O)C3[C@@H](CCC4=CC(=O)CC[C@@]43C)C2CC[C@]12O[C@@H]1C[C@H](C)CN[C@H]1[C@H]2C (some centres undefined) ?
> 100 µM

Which TGI value belongs to CCOC(=O)NC(=O)c1cn(CCCCCOC(=O)NCCCCCCNC(=O)OCCCCCn2cc(C(=O)NC(=O)OCC)c(=O)[nH]c2=O)c(=O)[nH]c1=O ?
> 100 µM
